experiment_notes: Henry solubility constant Hcp at 298.15 K (mol/(m3 Pa))
test_conditions: reference: Li et al. (1993)
Decision: Henry solubility constant Hcp compared against 0.0009; not below it gives yes (1), below it gives no (0).

>>> label_value("Cc1ccc(C)cc1 [1,4-dimethylbenzene]")
"yes (1)"
>>> label_value("Cc1ccccc1 [methylbenzene]")
"yes (1)"
>>> label_value("CC(C)Br [2-bromopropane]")
"no (0)"
>>> label_value("CCC(C)Br (configuration not stated) [2-bromobutane]")
"no (0)"
>>> label_value("c1ccccc1 [benzene]")
"yes (1)"
>>> label_value("ClCCl [dichloromethane]")
"yes (1)"
>>> label_value("CCBr [bromoethane]")
"yes (1)"
>>> label_value("CC(C)OC(C)C [diisopropyl ether]")
"yes (1)"
>>> label_value("Cc1ccccc1C [1,2-dimethylbenzene]")
"yes (1)"
>>> label_value("Cc1cc(C)cc(C)c1 [1,3,5-trimethylbenzene]")
"yes (1)"

* * *

experiment_notes: Henry solubility constant Hcp at 298.15 K (mol/(m3 Pa))
test_conditions: reference: Li et al. (1993)
Classification by Henry solubility constant Hcp follows these ranges: lower level: < 0.0006; middle level: ≥ 0.0006 and < 0.001; upper level: ≥ 0.001

>>> label_value("CCCCCl")
"lower level"
>>> label_value("CCCCCCl")
"lower level"
>>> label_value("ClC(Cl)=C(Cl)Cl")
"middle level"
>>> label_value("CC(Cl)(Cl)Cl")
"lower level"
>>> label_value("CCc1ccccc1")
"upper level"
>>> label_value("CCCCCCCl")
"lower level"
>>> label_value("CCCOCCC")
"upper level"
>>> label_value("CC(C)Cl")
"lower level"
>>> label_value("Cc1cccc(C)c1")
"upper level"
>>> label_value("CCCBr")
"upper level"
>>> label_value("CCI")
"upper level"
>>> label_value("CCCI")
"upper level"
>>> label_value("CCCCc1ccccc1")
"middle level"
